test system: Staphylococcus aureus; experiment: Bactericidal activity against Methycillin-resistant Staphylococcus aureus ATCC 43300 assessed as inhibition of bacterial growth measured after 96 hrs by broth dilution method; type: functional
Readout Type: MBC (µg/mL)
Please give a number only; it is taken to be in µg/mL.

Kindly note the recorded MBC for C=C[C@]1(C)C[C@@H](OC(=O)CSc2nnc(C)n2/N=C/c2ccc(N(CC)CC)cc2)[C@]2(C)[C@H](C)CC[C@]3(CCC(=O)[C@H]32)[C@@H](C)[C@@H]1O , which is 4

Kindly note the recorded MBC for C=C[C@]1(C)C[C@@H](OC(=O)CO)[C@]2(C)[C@H](C)CC[C@]3(CCC(=O)[C@H]32)[C@@H](C)[C@@H]1O [PLEUROMULIN] , which is 4

Kindly note the recorded MBC for C=C[C@]1(C)C[C@@H](OC(=O)CSc2nnc(C)n2/N=C/c2ccc(N(C)C)cc2)[C@]2(C)[C@H](C)CC[C@]3(CCC(=O)[C@H]32)[C@@H](C)[C@@H]1O , which is 1

====

test system: Staphylococcus aureus; experiment: Bactericidal activity against Methycillin-resistant Staphylococcus aureus ATCC 43300 assessed as inhibition of bacterial growth measured after 96 hrs by broth dilution method; format: functional
Readout Type: MBC (µg/mL)
Please give a number only; it is taken to be in µg/mL.

The cases that follow already have their MBC on record.
* C=C[C@]1(C)C[C@@H](OC(=O)CSc2nnc(C)n2/N=C/c2cccc([N+](=O)[O-])c2)[C@]2(C)[C@H](C)CC[C@]3(CCC(=O)[C@H]32)[C@@H](C)[C@@H]1O | 2
* C=C[C@]1(C)C[C@@H](OC(=O)CSc2nnc(C)n2/N=C/c2ccccc2Cl)[C@]2(C)[C@H](C)CC[C@]3(CCC(=O)[C@H]32)[C@@H](C)[C@@H]1O | 2
* C=C[C@]1(C)C[C@@H](OC(=O)CSc2nnc(C)n2/N=C/c2cccc(C(F)(F)F)c2)[C@]2(C)[C@H](C)CC[C@]3(CCC(=O)[C@H]32)[C@@H](C)[C@@H]1O | 4
* C=C[C@]1(C)C[C@@H](OC(=O)CSc2nnc(C)n2/N=C/c2ccc(N3CCOCC3)cc2)[C@]2(C)[C@H](C)CC[C@]3(CCC(=O)[C@H]32)[C@@H](C)[C@@H]1O | 1

We now examine a further compound.
Kindly note the recorded MBC for C=C[C@]1(C)C[C@@H](OC(=O)CSc2nnc(C)n2/N=C/c2ccc(C#N)cc2)[C@]2(C)[C@H](C)CC[C@]3(CCC(=O)[C@H]32)[C@@H](C)[C@@H]1O , which is 4

====

The compounds listed here are annotated with their MIC.
test system: Staphylococcus aureus; experiment: Antibacterial activity against Methycillin-resistant Staphylococcus aureus ATCC 43300 assessed as inhibition of bacterial growth measured after 24 hrs by broth dilution method; format: functional

Kindly note the recorded MIC for C=C[C@]1(C)C[C@@H](OC(=O)CO)[C@]2(C)[C@H](C)CC[C@]3(CCC(=O)[C@H]32)[C@@H](C)[C@@H]1O , which is 2 µg/mL

Kindly note the recorded MIC for C=C[C@]1(C)C[C@@H](OC(=O)CSc2nnc(C)n2/N=C/c2ccc(C#N)cc2)[C@]2(C)[C@H](C)CC[C@]3(CCC(=O)[C@H]32)[C@@H](C)[C@@H]1O , which is 1 µg/mL

====

The compounds listed here are annotated with their MIC.
tested on: Staphylococcus aureus; assay: Antibacterial activity against Methycillin-resistant Staphylococcus aureus ATCC 43300 assessed as inhibition of bacterial growth measured after 24 hrs by broth dilution method; format: functional
Please give a number only; it is taken to be in µg/mL.

- C=C[C@]1(C)C[C@@H](OC(=O)CSc2nnc(C)n2/N=C/c2cccc(O)c2)[C@]2(C)[C@H](C)CC[C@]3(CCC(=O)[C@H]32)[C@@H](C)[C@@H]1O: 0.5
- C=C[C@]1(C)C[C@@H](OC(=O)CSc2nnc(C)n2/N=C/c2ccc([N+](=O)[O-])cc2)[C@]2(C)[C@H](C)CC[C@]3(CCC(=O)[C@H]32)[C@@H](C)[C@@H]1O: 1
- C=C[C@]1(C)C[C@@H](OC(=O)CSc2nnc(C)n2/N=C/c2ccc(C(F)(F)F)cc2)[C@]2(C)[C@H](C)CC[C@]3(CCC(=O)[C@H]32)[C@@H](C)[C@@H]1O: 2
- C=C[C@]1(C)C[C@@H](OC(=O)CSc2nnc(C)n2/N=C/c2ccc(Cl)cc2)[C@]2(C)[C@H](C)CC[C@]3(CCC(=O)[C@H]32)[C@@H](C)[C@@H]1O: 0.5
- C=C[C@]1(C)C[C@@H](OC(=O)CSc2nnc(C)n2/N=C/c2ccc(F)cc2)[C@]2(C)[C@H](C)CC[C@]3(CCC(=O)[C@H]32)[C@@H](C)[C@@H]1O: 1

Kindly note the recorded MIC for C=C[C@]1(C)C[C@@H](OC(=O)CSc2nnc(C)n2/N=C/c2ccc(N3CCOCC3)cc2)[C@]2(C)[C@H](C)CC[C@]3(CCC(=O)[C@H]32)[C@@H](C)[C@@H]1O , which is 0.5

Kindly note the recorded MIC for C=C[C@]1(C)C[C@@H](OC(=O)CSc2nnc(C)n2/N=C/c2cccc(F)c2)[C@]2(C)[C@H](C)CC[C@]3(CCC(=O)[C@H]32)[C@@H](C)[C@@H]1O , which is 0.5

Kindly note the recorded MIC for C=C[C@]1(C)C[C@@H](OC(=O)CSc2nnc(C)n2/N=C/c2ccc(-c3ccccn3)cc2)[C@]2(C)[C@H](C)CC[C@]3(CCC(=O)[C@H]32)[C@@H](C)[C@@H]1O , which is 0.25

Kindly note the recorded MIC for C=C[C@]1(C)C[C@@H](OC(=O)CSc2nnc(C)n2/N=C/c2ccccc2[N+](=O)[O-])[C@]2(C)[C@H](C)CC[C@]3(CCC(=O)[C@H]32)[C@@H](C)[C@@H]1O , which is 0.5

Kindly note the recorded MIC for C=C[C@]1(C)C[C@@H](OC(=O)CSc2nnc(C)n2/N=C/c2ccc(C)cc2)[C@]2(C)[C@H](C)CC[C@]3(CCC(=O)[C@H]32)[C@@H](C)[C@@H]1O , which is 0.5

Kindly note the recorded MIC for C=C[C@]1(C)C[C@@H](OC(=O)CSc2nnc(C)n2/N=C/c2cccc(C)c2)[C@]2(C)[C@H](C)CC[C@]3(CCC(=O)[C@H]32)[C@@H](C)[C@@H]1O , which is 1

====

system: Staphylococcus aureus; assay: Antibacterial activity against Methycillin-resistant Staphylococcus aureus ATCC 43300 assessed as inhibition of bacterial growth measured after 24 hrs by broth dilution method; type: functional
The compounds listed here are annotated with their MIC.
Please give a number only; it is taken to be in µg/mL.

• C=C[C@]1(C)C[C@@H](OC(=O)CSc2nnc(C)n2/N=C/c2ccccc2Cl)[C@]2(C)[C@H](C)CC[C@]3(CCC(=O)[C@H]32)[C@@H](C)[C@@H]1O = 1
• C=C[C@]1(C)C[C@@H](OC(=O)CSc2nnc(C)n2/N=C/c2cccc([N+](=O)[O-])c2)[C@]2(C)[C@H](C)CC[C@]3(CCC(=O)[C@H]32)[C@@H](C)[C@@H]1O = 1
• C=C[C@]1(C)C[C@@H](OC(=O)CSc2nnc(C)n2/N=C/c2ccccc2C)[C@]2(C)[C@H](C)CC[C@]3(CCC(=O)[C@H]32)[C@@H](C)[C@@H]1O = 1
• C=C[C@]1(C)C[C@@H](OC(=O)CSc2nnc(C)n2/N=C/c2cccc(C(F)(F)F)c2)[C@]2(C)[C@H](C)CC[C@]3(CCC(=O)[C@H]32)[C@@H](C)[C@@H]1O = 2

Kindly note the recorded MIC for C=C[C@]1(C)C[C@@H](OC(=O)CSc2nnc(C)n2/N=C/c2cccc(Cl)c2)[C@]2(C)[C@H](C)CC[C@]3(CCC(=O)[C@H]32)[C@@H](C)[C@@H]1O , which is 1

====

system: Staphylococcus aureus; experiment: Bactericidal activity against Methycillin-resistant Staphylococcus aureus ATCC 43300 assessed as inhibition of bacterial growth measured after 96 hrs by broth dilution method; format: functional
Readout Type: MBC (µg/mL)
Please give a number only; it is taken to be in µg/mL.

• C=C[C@]1(C)C[C@@H](OC(=O)CSc2nnc(C)n2/N=C/c2cccc(C)c2)[C@]2(C)[C@H](C)CC[C@]3(CCC(=O)[C@H]32)[C@@H](C)[C@@H]1O = 2
• C=C[C@]1(C)C[C@@H](OC(=O)CSc2nnc(C)n2/N=C/c2cccc(F)c2)[C@]2(C)[C@H](C)CC[C@]3(CCC(=O)[C@H]32)[C@@H](C)[C@@H]1O = 1

We now examine a further compound.
Kindly note the recorded MBC for C=C[C@]1(C)C[C@@H](OC(=O)CSc2nnc(C)n2/N=C/c2ccccc2[N+](=O)[O-])[C@]2(C)[C@H](C)CC[C@]3(CCC(=O)[C@H]32)[C@@H](C)[C@@H]1O , which is 1

FYI, the data here is from ChEMBL document CHEMBL4831486.
